# Tested on: SKBR3
# experiment-notes: Cell viability (CellTiter-Blue, 72 h), SKBR3 breast cancer cells
# Assay type: cell-based
# condition-summary: Homo sapiens, SK-BR-3, 72 h, read-out: IC50 values, SKBR3, 1% FBS, 72 h
Answer each item with its documented pIC50.
Worth noting: pIC50 values are minus log10 of concentrations stated in mol/L.

In plain terms, C=C(C)[C@@H]1CCC(C)=C[C@H]1c1c(O)cc(CCCCC)c(C(=O)O)c1O has a documented pIC50 of 4.84

In plain terms, C=C(C)[C@@H]1CCC(C)=C[C@H]1c1c(O)cc(CCCCC)cc1O has a documented pIC50 of 5.40

In plain terms, CCCCCc1cc(O)c(C/C=C(\C)CCC=C(C)C)c(O)c1C(=O)O has a documented pIC50 of 4.97

In plain terms, CCCc1cc(O)c2c(c1)OC(C)(C)[C@@H]1CCC(C)=C[C@@H]21 [THCV, Tetrahydrocannabivarin] has a documented pIC50 of 4.97

In plain terms, CCCCCc1cc(O)c(C/C=C(\C)CCC=C(C)C)c(O)c1 has a documented pIC50 of 5.40
